assay.overview: in vitro
condition: African green monkey
value.type: CC50
Dear colleague, please send the value followed by its unit.

A selection of reference data follows.
1) CCCc1ccc(Oc2ccccc2)c(O)c1    62 µg/mL
2) Oc1cc(Cl)ccc1Oc1ccc(Cl)cc1Cl [Compound 1, triclosan, reference compound]    14 µg/mL

For the compound shown here, Oc1cc(Cl)ccc1Oc1ccccc1 , give the reported CC50.
60 µg/mL
